The following compounds are shown together with reported IC50 values.
study target: CDK12 (Homo sapiens, UniProt Q9NYV4)
Sequence (Q9NYV4 whole entry, species assumed): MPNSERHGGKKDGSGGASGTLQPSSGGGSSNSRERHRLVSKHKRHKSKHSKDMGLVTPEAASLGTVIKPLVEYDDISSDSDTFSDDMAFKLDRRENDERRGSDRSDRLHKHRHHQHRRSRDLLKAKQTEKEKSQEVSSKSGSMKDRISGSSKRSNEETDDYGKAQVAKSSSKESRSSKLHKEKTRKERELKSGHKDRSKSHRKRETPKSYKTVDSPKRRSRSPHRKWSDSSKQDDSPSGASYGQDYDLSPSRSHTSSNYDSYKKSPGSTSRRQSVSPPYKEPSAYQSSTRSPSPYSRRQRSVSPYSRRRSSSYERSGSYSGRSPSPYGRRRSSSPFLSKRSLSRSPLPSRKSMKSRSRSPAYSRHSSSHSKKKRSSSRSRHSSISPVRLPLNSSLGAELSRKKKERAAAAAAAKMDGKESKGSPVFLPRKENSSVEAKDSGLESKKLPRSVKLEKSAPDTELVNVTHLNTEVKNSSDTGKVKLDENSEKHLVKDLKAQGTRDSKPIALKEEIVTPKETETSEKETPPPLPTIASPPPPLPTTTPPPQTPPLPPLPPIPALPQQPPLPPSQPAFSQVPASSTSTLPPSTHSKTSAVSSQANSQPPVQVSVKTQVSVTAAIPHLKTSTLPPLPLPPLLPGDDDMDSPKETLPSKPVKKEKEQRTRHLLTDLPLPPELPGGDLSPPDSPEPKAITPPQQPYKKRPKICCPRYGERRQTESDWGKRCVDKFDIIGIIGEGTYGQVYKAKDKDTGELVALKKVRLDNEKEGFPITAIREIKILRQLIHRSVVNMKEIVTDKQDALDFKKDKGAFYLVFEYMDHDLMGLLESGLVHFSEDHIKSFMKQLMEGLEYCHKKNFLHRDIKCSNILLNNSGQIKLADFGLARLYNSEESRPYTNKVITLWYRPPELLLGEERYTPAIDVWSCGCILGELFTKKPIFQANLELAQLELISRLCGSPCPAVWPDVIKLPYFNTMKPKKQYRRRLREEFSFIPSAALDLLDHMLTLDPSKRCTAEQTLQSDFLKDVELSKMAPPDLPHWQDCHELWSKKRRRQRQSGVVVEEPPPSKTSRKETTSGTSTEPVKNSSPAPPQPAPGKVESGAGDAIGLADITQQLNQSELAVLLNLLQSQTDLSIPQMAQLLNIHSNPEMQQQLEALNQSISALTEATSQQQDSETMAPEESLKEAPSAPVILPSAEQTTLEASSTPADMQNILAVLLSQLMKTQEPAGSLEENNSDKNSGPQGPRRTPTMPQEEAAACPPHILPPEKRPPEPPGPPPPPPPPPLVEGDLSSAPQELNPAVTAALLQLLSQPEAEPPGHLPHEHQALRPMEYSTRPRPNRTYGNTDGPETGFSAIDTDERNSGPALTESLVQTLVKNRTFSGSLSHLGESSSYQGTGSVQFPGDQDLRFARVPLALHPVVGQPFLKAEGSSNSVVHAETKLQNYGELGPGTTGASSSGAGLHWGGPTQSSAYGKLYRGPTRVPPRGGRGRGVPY
Sequence (O75909 whole entry partner, species assumed): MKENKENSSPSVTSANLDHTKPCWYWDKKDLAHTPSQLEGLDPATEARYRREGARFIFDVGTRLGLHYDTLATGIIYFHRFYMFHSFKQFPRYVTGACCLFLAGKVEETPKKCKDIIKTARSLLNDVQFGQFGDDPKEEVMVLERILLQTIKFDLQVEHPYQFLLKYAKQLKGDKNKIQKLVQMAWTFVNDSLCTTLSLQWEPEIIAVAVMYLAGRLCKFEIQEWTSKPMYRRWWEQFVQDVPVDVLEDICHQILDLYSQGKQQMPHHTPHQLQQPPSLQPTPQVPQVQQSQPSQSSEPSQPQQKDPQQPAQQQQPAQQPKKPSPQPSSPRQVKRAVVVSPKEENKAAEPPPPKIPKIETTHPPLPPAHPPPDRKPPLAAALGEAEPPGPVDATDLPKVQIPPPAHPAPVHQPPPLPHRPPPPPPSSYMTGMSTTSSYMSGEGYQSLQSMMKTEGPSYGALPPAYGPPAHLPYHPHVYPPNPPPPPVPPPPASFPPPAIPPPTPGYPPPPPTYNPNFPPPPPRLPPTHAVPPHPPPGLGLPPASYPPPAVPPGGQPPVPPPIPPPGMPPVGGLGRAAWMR
procedure summary: Cellular CDK12 inhibitory activity assay (Ser2 phosphorylation of RNA polymerase II subunit B1 CTD in MDA-MB-231 cells)
Assay type: cell-based
Set-up: using MDA-MB-231 breast cancer cells; endogenous in cells; host or cells: MDA-MB-231
condition: MDA-MB-231 cells, 6 hours treatment; read-out: pRpbl CTD S2 IC50

Solved entries (count: 6):
Entry CN1CC2CCC(C1)N2c1cc(NCc2nc3cc(Cl)c(Cl)cc3[nH]2)c2ncc(C(F)(F)F)n2n1 [Example 96] , IC50 reported as < 300 nM

Entry Fc1ccc2nc(CNc3cc(N4C5CCC4CNC5)nn4c(C(F)(F)F)cnc34)[nH]c2c1F [Example 11] , IC50 reported as < 300 nM

Entry Cc1ccnc2[nH]c(CNc3cc(N4CCOCC4)nn4c(C(F)(F)F)cnc34)nc12 [Example 75] , IC50 reported as < 300 nM

Entry FC(F)(F)c1cnc2c(NCc3nc4cc(Cl)c(Cl)cc4[nH]3)cc(N3CC(NC4CC4)C3)nn12 [Example 58] , IC50 reported as < 300 nM

Entry N#CC1CCN(c2cc(NCc3nc4cc(Cl)c(Cl)cc4[nH]3)c3ncc(C(F)(F)F)n3n2)C1 (stereo not shown) [Example 49] , IC50 reported as < 300 nM

Entry Fc1ccc2nc(CNc3cc(N4CCOCC4)nn4c(C#CC5CC5)cnc34)[nH]c2c1F [Example 25] , IC50 reported as > 3000 nM

Now take the following compound into account.
Entry Nc1ncc(-c2cc(NCc3nc4ccc(F)c(F)c4[nH]3)c3ncc(C#CC4CC4)n3n2)cn1 [Example 21] , IC50 reported as > 3000 nM
